Some molecules, each annotated with its measured RP-LC retention time.
Assay: gradient 5% acetonitrile 3 min, to 50% in 2 min, to 85% in 15 min, held 3 min, 100 µL/min
Conditions: column: Zorbax Extend-C18 2.1 x 50 mm; eluents: water / acetonitrile, 0.1% formic acid
measure.name: RP-LC retention time (s)

N#Cc1ccc(-n2cnc(C(=O)Nc3cccc(C(F)(F)F)c3)c2)cc1 = 889
O=C(Cn1ccn2nc(-c3ccccc3)c(CO)c2c1=O)Nc1cccc(Cl)c1 = 856
COc1cccc(CNC(=O)C2CCN(c3ccc(SCc4ccccc4)nn3)CC2)c1 = 758
CCN(CCN(C)C)c1ccc(C(=O)O)cc1NS(=O)(=O)c1ccc(F)cc1 = 613
CCn1c(=O)c2c(cc(C)n2C)n(CC(=O)Nc2ccc(F)cc2)c1=O = 780
O=S(=O)(c1ccc(-c2cnc(C3CCC3)o2)s1)N1CCN(c2ncccn2)CC1 = 1040
Cn1c(C2CCN(C(=O)Nc3cccc(Cl)c3F)CC2)cc(=O)n2nccc12 = 685
Cc1cccc(-n2c(=O)c3sccc3n(Cc3nc(-c4ccc(F)c(Cl)c4)no3)c2=O)c1 = 1100
O=C(C1CCN(c2nnc(-c3ccccc3)o2)CC1)N1CCCCCC1 = 810
CCOc1ccc(-n2nc(-c3nc(-c4ccncc4)no3)c3ccccc3c2=O)cc1 = 1090
CCOC(=O)c1[nH]c(C)c(CN(Cc2ccco2)C(=O)Cc2ccc(F)cc2)c1C = 1020
O=C(c1nnc(-c2ccc(S(=O)(=O)N3CCCCC3)cc2)o1)N1CCCC1 = 760
CN1CCC(N2CCN(C(=O)C3CCc4sc(C(=O)N5CCCC5)cc4C3)CC2)CC1 (stereo unspecified) = 558
CN(C)c1ccc(C(=O)N2CCC(c3cc(N)on3)CC2)cc1 = 614
O=C(CSc1nnc(-c2cccc(Cl)c2)o1)Nc1ccc(C(F)(F)F)cc1 = 1050
CN(C)CCNC(=O)c1ccc(CS(=O)(=O)c2c(Cl)cccc2Cl)o1 = 595
CCN1c2cc(F)ccc2C(=O)NC12CCN(C(=O)c1ccc(OC)c(OC)c1)CC2 = 740
O=C(NCc1csc(C2CCCN(C(=O)C3CC3)C2)n1)C1CCC1 (stereo unspecified) = 667
Cn1cc(CCNC(=O)Nc2ccc(F)cc2)c2cccnc21 = 679
Cc1ccn2cc(-c3ccc(NS(=O)(=O)c4ccc(I)cc4)cc3)nc2n1 = 701
O=C(NCCN1CCCC1)c1ccc(-c2noc(-c3ccccc3)n2)s1 = 673
CCCN1C(=O)c2c(C(=O)NCc3ccc(F)cc3)ncn2CC1(C)C(=O)NCCC(C)C (stereo unspecified) = 824
CNC(=O)[C@@H]1CN(C(=O)Cn2c(=O)oc3ccccc32)C[C@H]1c1n[nH]c(C)n1 = 578
Cc1ccc(-c2nc3ncccn3c2Nc2ccc(C)cc2C)cc1 = 838
CCOC(=O)C1CCCN(S(=O)(=O)c2cc(-c3nnc(-c4ccccc4)o3)ccc2OC)C1 (stereo unspecified) = 1020
CCn1c(=O)cc(OCC(=O)N2CCN(c3ccccn3)CC2)c2ccccc21 = 584
O=C(C1CCN(Cc2cc3ccccc3n2Cc2ccccc2)CC1)N1CCN(C2CCCCC2)CC1 = 634
Cc1cccc(C)c1Nc1c(-c2ccccc2O)nc2ncccn12 = 705
CCOC1CCOC2(CCN(C(=O)c3ccco3)CC2)C1 (stereo unspecified) = 691
O=C(CCc1c(-c2ccccc2)nc2ccccn12)Nc1cccc(Cl)c1 = 692
CC(C)NC(=O)c1ccc2c(c1)N(S(C)(=O)=O)CC2 = 691

---

Assay: gradient 5% acetonitrile 3 min, to 50% in 2 min, to 85% in 15 min, held 3 min, 100 µL/min
Details: column: Zorbax Extend-C18 2.1 x 50 mm; eluents: water / acetonitrile, 0.1% formic acid
Some molecules, each annotated with its measured RP-LC retention time.
measure.name: RP-LC retention time (s)

Cc1ccc2c(c1)N(Cc1ccccc1)N=C(C(=O)N1CCC(C)CC1)S2(=O)=O = 1080
Cc1cccc(NC(=O)NC2CCN(c3ccc(C)c(C)c3)C2=O)c1 (stereo not drawn) = 923
COc1ccc(NC(=O)N(C)CCc2noc(COc3ccccc3F)n2)c(OC)c1 = 877

---

Test: gradient 5% acetonitrile 3 min, to 50% in 2 min, to 85% in 15 min, held 3 min, 100 µL/min
Conditions: column: Zorbax Extend-C18 2.1 x 50 mm; eluents: water / acetonitrile, 0.1% formic acid
Give MET when the value for RP-LC retention time is at least 800 s. Give NOT MET when it is less.

CCOC(=O)c1c(C)oc2nc(C)nc(NCC3CCN(Cc4ccc(F)cc4)CC3)c12 = NOT MET
CC(C(=O)N1CCN(c2ccccn2)CC1)n1c(=O)c(C(F)(F)F)nc2ccccc21 (centres undefined) = NOT MET
Cc1cc(OCC(=O)Nc2ccnn2Cc2cccs2)ccc1Cl = MET
Cc1ccccc1NC(=O)N1CCC(CCNC(=O)C2(c3ccccc3)CC2)CC1 = MET
Cc1nc(-c2ccncc2)nc2c1CCC(=O)N2C1CCCCC1 = MET
Cc1ccn2c(NC(=O)c3ccco3)c(-c3ccccc3)nc2c1 = NOT MET
O=C(Cn1nc2c(N3CCCCCC3)nccn2c1=O)NC1CCCCC1 = NOT MET
CCn1c(C(=O)N2CCN(c3ccccn3)CC2)cc2sccc21 = NOT MET
O=C(Cn1cccc1-c1nnc(C2CC2)o1)N1CCN(c2cccc(Cl)c2)CC1 = MET
CC(C)NC(=O)c1ccc(OCC2CCCN(C(=O)c3ccc(F)cc3)C2)cc1 (centres undefined) = MET
CCCn1cc(S(=O)(=O)CC(=O)Nc2ccc(C(=O)OCC)cc2)c2ccccc21 = MET
CS(=O)(=O)Nc1ccc(C2(C(=O)N3CCN(c4ccccc4)CC3)CCCCC2)cc1 = NOT MET

---

Some compounds, each annotated with its measured RP-LC retention time.
Assay: gradient 5% acetonitrile 3 min, to 50% in 2 min, to 85% in 15 min, held 3 min, 100 µL/min
Settings: column: Zorbax Extend-C18 2.1 x 50 mm; eluents: water / acetonitrile, 0.1% formic acid
measure.name: RP-LC retention time

COc1ccccc1N1CCN(CC(O)c2ccc3c(c2)OCO3)CC1 (stereo not drawn) = 631 s
Cc1cc2c(cc1S(=O)(=O)N1CCCC1C(=O)N1CCc3ccccc31)OCC(=O)N2 (stereo not drawn) = 788 s
CCN1CCCC1CN(CC(=O)N1CCNCC1)S(=O)(=O)c1ccc(C(C)C)cc1 (stereo not drawn) = 604 s

---

Experiment: gradient 5% acetonitrile 3 min, to 50% in 2 min, to 85% in 15 min, held 3 min, 100 µL/min
Details: column: Zorbax Extend-C18 2.1 x 50 mm; eluents: water / acetonitrile, 0.1% formic acid
Give true when the value for RP-LC retention time is at least 700 s. Give false when it is less.

Cc1ccc2nc(NC(=O)CN3CCC(C(N)=O)CC3)sc2c1 = false
Cc1ccc(-c2nc(Cn3cccc3C(=O)NCc3cccs3)no2)cc1 = true
COc1ccccc1CNC(=O)CSc1ccc(-c2cccnc2)nn1 = false
Cc1nc2nc(-c3ccc(Cl)cc3)nn2c(C)c1CC(=O)NC(C)C = true
O=C(Cn1nc2c(cc1=O)CCCC2)NCCc1nc(-c2ccccc2)cs1 = true
COc1ccc(-c2nc(NC3CCCCCC3)c3ccccc3n2)cc1 = true
CN(C)c1cccc(C(=O)N2CCN(S(=O)(=O)C3CC3)CC2)c1 = false

---

Experiment: gradient 5% acetonitrile 3 min, to 50% in 2 min, to 85% in 15 min, held 3 min, 100 µL/min
Details: column: Zorbax Extend-C18 2.1 x 50 mm; eluents: water / acetonitrile, 0.1% formic acid
measure.name: RP-LC retention time (s)

CCOC(=O)Cc1ccc(NC(=O)N2CCN(c3nc4ccccc4nc3C(F)(F)F)CC2)cc1 = 1080
Cc1cc2nn(CC(=O)Nc3ccc(F)cc3F)c(=O)n2c(Nc2ccc(F)c(C)c2)n1 = 1060
COc1ccc(C(=O)N(C)CC2(C)CCOCC2)cc1OC = 677
Cc1cc(-c2nnc(-c3ccc(F)cc3)o2)c(C)n1CC(=O)Nc1ccc(F)c(F)c1 = 1040
Cc1nnc(NC(=O)CSc2nnc(-c3ccc(Cl)cc3)o2)s1 = 772
O=C(Nc1nnc(-c2ccc(Cl)s2)o1)c1ccc2ncsc2c1 = 733
Cc1cc(N2CCN(C(=O)c3ccc4c(c3)OCO4)CC2)nc(N2CCCCC2)n1 = 666
CCOc1ccc(NC(=O)N2CCCC(C)(C(=O)NCc3ccccc3C)C2)cc1 (centres undefined) = 855
COc1ccc2[nH]cc(CCNC(=O)CC3CCN(S(=O)(=O)c4ccc(Cl)s4)CC3)c2c1 = 905
CCc1nc(-c2csc(S(=O)(=O)N3CCC(C(=O)Nc4ccc(Cl)cc4F)CC3)c2)no1 = 1060
CCc1cccc(C)c1NC(=O)Cn1c(=O)n(-c2cccc(C)c2)c(=O)c2c1cc(C)n2C = 881
O=C(NC1CC1)c1ccc(OCC2CCCN(C(=O)c3cc(F)ccc3F)C2)cc1 (centres undefined) = 820
O=C1CCCc2cc(S(=O)(=O)N3CCC(C(=O)NCCc4ccccc4)CC3)ccc2N1 = 735
Cc1cc(N2CCN(C(=O)c3nccc4ccccc34)CC2)nc2nnc(C)n12 = 592
CCS(=O)(=O)N1CC(=O)N(Cc2ccc(Cl)cc2)C(C)(C(=O)NC2CCCCCCC2)C1 (centres undefined) = 1040
CC(C)CC(=O)N1CCC(CC(=O)N2CCOCC2)C1 (centres undefined) = 622
CCN1C(=O)c2c(C(=O)NCc3ccc(Cl)cc3)ncn2CC1(C)C(=O)NC1CCCC1 (centres undefined) = 798
CCOC(=O)c1c(S(=O)(=O)N2CCC(C(=O)Nc3cccc(C)n3)CC2)c(C)n(C)c1C = 701
CCN(CC)CCNC(=O)C1(O)c2cc(Br)ccc2NC(=O)N1c1cccc(OC)c1 (centres undefined) = 590
COc1ccc(-c2csc(Nc3ccccc3OC)n2)cc1 = 1130
O=C(NCc1cccnc1-c1ccc(F)cc1)c1ccc(F)cc1F = 690
CCn1c(=O)c2cc(C(=O)Nc3cccc(C(=O)OC)c3)nn2c2ccccc21 = 977
COCCNC(=O)c1nc(-c2ccnc(N3CCCC3)c2)no1 = 585
O=C(O)CCc1conc1-c1ccc(F)cc1 = 708
CCN1CCCC1CNC(=O)c1nnc(-c2ccc(S(=O)(=O)N3CCC(C)CC3)cc2)o1 (centres undefined) = 703
CCCn1cc(-c2nc(-c3cccnc3)no2)c(=O)c2cc(F)ccc21 = 770
COCCNC(=O)CCc1c(-c2ccc(Cl)cc2)nc2ccccn12 = 590
CCCN1C(=O)Cc2c(C)nc(-c3cccc(F)c3)nc21 = 1090
CN(CCc1ccccn1)C(=O)c1cn2ccnc(-c3ccccc3)c2n1 = 563
